- Tested on: BVDV NADL virus
- method-description: CPE-based antiviral assay, BVDV NADL in MDBK cells (MTS/PMS)
- assay-setup: sheet CSFCII#; potency relative to TO502-2403 (EC50 0.2 µM)
fold increase below 1 gives no; fold increase at or above it gives yes.

# count of solved cases: 5
[
  {
    "query-smiles": "O=C(Nc1ccn(-c2ccccc2)n1)c1cc(-c2ccccc2F)nc2ccccc12",
    "group": "yes"
  },
  {
    "query-smiles": "COc1ccc2nc(NC(=O)c3cc(-c4ccco4)nc4ccc(OC(F)(F)F)cc34)sc2c1",
    "group": "no"
  },
  {
    "query-smiles": "O=C(Nc1ccn(-c2ccccc2)n1)c1cc(-c2cc3ccccc3o2)nc2ccccc12",
    "group": "no"
  },
  {
    "query-smiles": "O=C(Nc1ccn(-c2ccccc2)n1)c1cc(-c2cccs2)nc2ccc(Br)cc12",
    "group": "no"
  },
  {
    "query-smiles": "Cc1cccc2sc(NC(=O)c3cc(-c4cccs4)nc4ccc(Br)cc34)nc12",
    "group": "no"
  }
]

Now consider the entry below.
Reported fold increase reaches at least 1 for O=C(Nc1nccs1)c1cc(-c2ccccc2)nc2ccccc12 ? no
